Test system: P388 leukemia ip, CD2F1 mice, survival T/C
Test: NCI In Vivo Anticancer Drug Screen. Data for tumor model P388 Leukemia (intraperitoneal) in CD2F1 (CDF1) mice
Conditions: endpoint: median survival time; dose: 50.0 mg/kg/injection; schedule: Q01DX009 (ip); vehicle: saline with Tween-80; higher = longer survival
Toxic doses and inconclusive results are not listed.
observable: T/C

Prompt: Name the recorded T/C for CC(=O)c1ccccc1N=Nc1ccc(N(CCCl)CCCl)cc1 .
Completion: 108 % of control

Prompt: Name the recorded T/C for O=C(O)C(=O)O.O=N[O-].[Co+3].[NH-]CC[N-]CC[NH-] .
Completion: 108 % of control

Prompt: Name the recorded T/C for CN(C)c1ccc2nc3ccc(=O)cc-3sc2c1 .
Completion: 108 % of control

Prompt: Name the recorded T/C for CCOC(=O)c1ccc(NC(CCNC2CCCCC2)=NC(C)(C)C)cc1 .
Completion: 96 % of control

Prompt: Name the recorded T/C for Cc1cccnc1NC1OC(=O)c2ccccc21 (stereo unspecified) .
Completion: 100 % of control

Prompt: Name the recorded T/C for CN(NC(=O)C(=O)NCc1ccco1)C(=O)Nc1ccc(Cl)cc1 .
Completion: 103 % of control

====

Tested on: P388 leukemia ip, CD2F1 mice, survival T/C
Experiment: NCI In Vivo Anticancer Drug Screen. Data for tumor model P388 Leukemia (intraperitoneal) in CD2F1 (CDF1) mice
Details: endpoint: median survival time; dose: 12.5 mg/kg/injection; schedule: Q01DX005 (ip); vehicle: saline; higher = longer survival
Toxic doses and inconclusive results are not listed.
observable: T/C

Prompt: Name the recorded T/C for NC1=NC(O)C=C1 (centres undefined) .
Completion: 105 % of control

Prompt: Name the recorded T/C for CNC(=O)ON(C(C)=O)C(=O)NC .
Completion: 116 % of control

Prompt: Name the recorded T/C for CCN(CC)CCCC(C)NC(=O)Nc1cc(OC)cc2cccnc12 (centres undefined) .
Completion: 107 % of control

Prompt: Name the recorded T/C for O=C1C=CC(=Nc2cc(Br)c(O)c(Br)c2)C=C1 .
Completion: 103 % of control

====

Test system: P388 leukemia ip, CD2F1 mice, survival T/C
Test: NCI In Vivo Anticancer Drug Screen. Data for tumor model P388 Leukemia (intraperitoneal) in CD2F1 (CDF1) mice
Conditions: endpoint: median survival time; dose: 50.0 mg/kg/injection; schedule: Q01DX009 (ip); vehicle: saline; higher = longer survival
Inconclusive results and toxic doses are left out.
Can you tell me T/C for the items I'm about to list?

Prompt: Name the recorded T/C for CCCC1CN2CCc3cc(OC)c(OC)cc3C2C/C1=C/C(=O)OCC (stereo unspecified) .
Completion: 96 % of control

Prompt: Name the recorded T/C for O=C(O)CSCCCCCCSCC(=O)O .
Completion: 103 % of control

Prompt: Name the recorded T/C for Nc1ccc2cc(S(=O)(=O)O)cc(O)c2c1N=Nc1ccc(F)cc1 .
Completion: 93 % of control

Prompt: Name the recorded T/C for CCC1(O)CCC2C3CC=C4CCCCC4C3CCC21C (stereo unspecified) .
Completion: 107 % of control

Prompt: Name the recorded T/C for O=C(Nc1ccccc1)Oc1ccc[nH]c1=O .
Completion: 118 % of control

Prompt: Name the recorded T/C for C=C1C(=O)OC2(CCCCC)CCCCC12 (stereo unspecified) .
Completion: 96 % of control

Prompt: Name the recorded T/C for O=S1(=O)CCC(N2CCCCC2)C1 (stereo unspecified) .
Completion: 94 % of control

Prompt: Name the recorded T/C for C=C1SC(=Nc2ccc(Cl)cc2)N(c2nc(Cl)nc(Cl)n2)C12CCCCC2 .
Completion: 98 % of control

Prompt: Name the recorded T/C for O=C1NCCNC1c1ccccc1 (stereo unspecified) .
Completion: 102 % of control

Prompt: Name the recorded T/C for CC1(C)N=C(N)N=C(N)N1c1ccc(OCC(=O)N2CCOCC2)c(Cl)c1 .
Completion: 116 % of control

Prompt: Name the recorded T/C for Cn1c(C(=O)c2cc3ccccc3n2C)cc2ccccc21 .
Completion: 100 % of control

====

Test system: P388 leukemia ip, CD2F1 mice, survival T/C
Assay: NCI In Vivo Anticancer Drug Screen. Data for tumor model P388 Leukemia (intraperitoneal) in CD2F1 (CDF1) mice
Conditions: endpoint: median survival time; dose: 25.0 mg/kg/injection; schedule: Q01DX009 (ip); vehicle: saline with Tween-80; higher = longer survival
Inconclusive results and toxic doses are left out.
Can you tell me T/C for the items I'm about to list?

Prompt: Name the recorded T/C for CC(C)(c1ccc(OCC2CO2)cc1)c1ccc(OCC2CO2)cc1 (stereo unspecified) .
Completion: 103 % of control

Prompt: Name the recorded T/C for Cc1ccnc(N=C2N=C(Nc3cc(C)ccn3)c3ccccc32)c1 .
Completion: 99 % of control

Prompt: Name the recorded T/C for CSC(SC)(SC)C(=O)N(C)C .
Completion: 95 % of control

Prompt: Name the recorded T/C for COc1cc(C)ccc1C1OC(=O)c2c1ccc(OC)c2OC (stereo unspecified) .
Completion: 106 % of control

Prompt: Name the recorded T/C for O=[N+]([O-])c1ccccc1-c1ccccc1N=Cc1ccccc1 .
Completion: 86 % of control

Prompt: Name the recorded T/C for CCOC(=O)C1=C(c2ccccc2)SC(c2ccccc2)N(C(C)C)C1=O (stereo unspecified) .
Completion: 106 % of control

Prompt: Name the recorded T/C for Cc1c(Cl)cnc(N)c1Cl (tested in a mixture with another compound) .
Completion: 93 % of control

Prompt: Name the recorded T/C for CCCC[P+](CCCC)(CCCC)CC(=O)O .
Completion: 97 % of control

Prompt: Name the recorded T/C for CN(CO)c1nc(N(C)CO)nc(N(C)CO)n1 .
Completion: 119 % of control

Prompt: Name the recorded T/C for Cc1ccc(S(=O)(=O)Cl)cc1Cl .
Completion: 101 % of control

Prompt: Name the recorded T/C for [Cl-].[Cl-].[Co+3].[NH-]CC[NH-].[NH-]CC[NH-].[O-][Cl+3]([O-])([O-])O .
Completion: 102 % of control

====

Tested on: P388 leukemia ip, CD2F1 mice, survival T/C
Assay: NCI In Vivo Anticancer Drug Screen. Data for tumor model P388 Leukemia (intraperitoneal) in CD2F1 (CDF1) mice
Conditions: endpoint: median survival time; dose: 6.25 mg/kg/injection; schedule: Q01DX005 (ip); vehicle: Klucel (hydroxypropylcellulose) (HPC); higher = longer survival
Toxic doses and inconclusive results are not listed.
observable: T/C

Prompt: Name the recorded T/C for N#CC1=C2CCCCC2(O)NC1=O (stereo not given) .
Completion: 108 % of control

Prompt: Name the recorded T/C for CC(=O)OC1OC(/C=N\N(C)C)C(OCc2ccccc2)C(OCc2ccccc2)C1OC(C)=O (stereo not given) .
Completion: 97 % of control

Prompt: Name the recorded T/C for Nc1c(-c2ccc(C3=NCCN3)cc2)[nH]c2cc(C3=NCCN3)ccc12 .
Completion: 100 % of control

Prompt: Name the recorded T/C for CCn1c(COc2c(I)cc(I)c3cccnc23)n[nH]c1=S .
Completion: 96 % of control

Prompt: Name the recorded T/C for c1cc2c3c(ccc2c2c1OCN(C1CCCCC1)C2)OCN(C1CCCCC1)C3 .
Completion: 91 % of control

====

Can you tell me T/C for the items I'm about to list?
Tested on: P388 leukemia ip, CD2F1 mice, survival T/C
Assay: NCI In Vivo Anticancer Drug Screen. Data for tumor model P388 Leukemia (intraperitoneal) in CD2F1 (CDF1) mice
Settings: endpoint: median survival time; dose: 200.0 mg/kg/injection; schedule: Q01DX009 (ip); vehicle: Klucel (hydroxypropylcellulose) (HPC); higher = longer survival
Toxic doses and inconclusive results are not listed.

Prompt: Name the recorded T/C for Cc1c(Br)c(Br)nn1C(C)C(=O)N(C)C (stereo not drawn) .
Completion: 101 % of control

Prompt: Name the recorded T/C for CN(CCCCCl)C(=O)Oc1ccccc1 .
Completion: 99 % of control

Prompt: Name the recorded T/C for CN(C)N1C(=O)C(c2ccccc2)(c2ccccc2)CSC1=S .
Completion: 101 % of control

Prompt: Name the recorded T/C for CCN(CC)Cc1c(C)[nH]c2c3c(ccc2c1=O)Oc1c(ccc2c(=O)c(CN(CC)CC)c(C)[nH]c12)O3 .
Completion: 96 % of control

Prompt: Name the recorded T/C for COC1/C=C\OC2(C)Oc3c(C)c(O)c4c(O)c(c5[nH]cnc5c4c3C2=O)NC(=O)/C(C)=C\C=C\C(C)C(O)C(C)C(O)C(C)C(OC(C)=O)C1C (stereo not drawn) .
Completion: 108 % of control

Prompt: Name the recorded T/C for CCCCN1C(=O)C(=O)N(Cc2ccco2)C1=O .
Completion: 106 % of control

Prompt: Name the recorded T/C for O=C1CC(c2ccccc2)C(c2ccccc2)C1 (stereo not drawn) .
Completion: 93 % of control

Prompt: Name the recorded T/C for NC(=O)C[C@H](NP(=S)(c1ccccc1)c1ccccc1)C(=O)O .
Completion: 110 % of control

Prompt: Name the recorded T/C for N#CC12C3C4C5C3C1C(C42)n1c(=O)n(-c2ccccc2)c(=O)n15 (stereo not drawn) .
Completion: 95 % of control

Prompt: Name the recorded T/C for COc1ccccc1N=c1scc(C)n1C .
Completion: 118 % of control

Prompt: Name the recorded T/C for COc1cccc(OC)c1OCCN1C(=O)c2ccccc2C1=O .
Completion: 105 % of control

Prompt: Name the recorded T/C for ClCOc1cc(Cl)c(OCCl)cc1Cl .
Completion: 101 % of control

Prompt: Name the recorded T/C for NC(=O)c1[nH]c(/N=N/c2nc[nH]c2C(N)=O)nc1N .
Completion: 93 % of control

Prompt: Name the recorded T/C for COC(=O)/C=C1\C(=O)OC(C)(C)C1C (stereo not drawn) .
Completion: 103 % of control

Prompt: Name the recorded T/C for CCc1cccc(CC)c1NC(=S)Nc1c(C)n(C)n(-c2ccccc2)c1=O .
Completion: 95 % of control

Prompt: Name the recorded T/C for COc1cc(CC2C(=O)OCC2C2(c3ccc4c(c3)OCO4)SCCCS2)cc(OC)c1OC (stereo not drawn) .
Completion: 93 % of control

Prompt: Name the recorded T/C for CCCCCCCC/C=C/CCCCCCCC(=O)N(CCOC(=O)C(C)(C)C)CCOC(=O)C(C)(C)C .
Completion: 111 % of control

Prompt: Name the recorded T/C for CCOC(=O)CC1C(=O)N(c2nc(-c3ccc(Br)cc3)cs2)N=C1C (stereo not drawn) .
Completion: 103 % of control

Prompt: Name the recorded T/C for CCC(C)C(N)C(=O)O (stereo not drawn) .
Completion: 105 % of control

Prompt: Name the recorded T/C for O=c1[nH]c2ccccc2n1C1CCN(CCOc2ccccc2)CC1 .
Completion: 95 % of control

Prompt: Name the recorded T/C for CC(=O)CC1(O)C(=O)Nc2ccc(Br)cc21 (stereo not drawn) .
Completion: 92 % of control

Prompt: Name the recorded T/C for CC(C)c1ccc(C(CC(=O)c2ccccc2)C(C(=O)O)c2ccc([N+](=O)[O-])cc2)cc1 (stereo not drawn) .
Completion: 104 % of control

Prompt: Name the recorded T/C for CC(=O)C1C(=O)C(=O)N(c2ccccc2C)C1=O (stereo not drawn) .
Completion: 110 % of control
